- System: HCT-15 colon
- EXPERIMENT: NCI tumour cell line growth inhibition, 48 h; in the data active = GI50 below about 0.43 µM; inactive = the rest
Give one outcome, nothing more. List: active, inactive

MOLECULE: CC(=O)OCC1OC(OC2=C(CC=C(Cl)Cl)C(=O)c3ccccc3C2=O)C(OC(C)=O)C(OC(C)=O)C1OC(C)=O (configuration not stated)
GROUP_LABEL: inactive

In this assay, the call recorded for CC[C@@H](C(=O)[C@@H](C)[C@@H](O)[C@H](C)[C@@H]1O[C@@H]([C@@H](CC)C(=O)O)CC[C@@H]1C)[C@H]1OC2(C=C[C@@H](O)[C@]3(CC[C@@](C)([C@H]4CC[C@](O)(CC)[C@H](C)O4)O3)O2)[C@H](C)C[C@@H]1C (some centres not stated) was what?
inactive

In this assay, the call recorded for CC1OC(OC2CC(O)C3(CO)C4C(O)CC5(C)C(C6=CC(=O)OC6)CCC5(O)C4CCC3(O)C2)C(O)C(O)C1O (configuration not stated) was what?
active

In this assay, the call recorded for CNC(C)C(=O)N[C@H](C(=O)N1CCC[C@@H]1CN(CCc1ccccc1)C(=O)C(F)(F)F)[C@H](C)OCC#CC#CCO[C@H](C)[C@H](NC(=O)[C@H](C)NC)C(=O)N1CCC[C@H]1CN(CCc1ccccc1)C(=O)C(F)(F)F (some centres not stated) was what?
inactive

In this assay, the call recorded for `COC(=O)[C@H](CC(C)C)NC(=O)NC(=O)NC(=O)CI` was what?
inactive

In this assay, the call recorded for `CC(=O)OC[C@]12CC[C@@H]([C@@H](C)C(N)=O)[C@@H]1[C@H]1CC[C@@H]3[C@@]4(C)CC[C@H](OC(C)=O)C(C)(C)[C@@H]4CC[C@@]3(C)[C@]1(C)CC2` was what?
inactive

In this assay, the call recorded for NCC1OC(OC2C(CO)OC(OC3C(O)C(N)CC(N)C3OC3OC(CO)C(O)C(O)C3N)C2O)C(N)C(O)C1O (configuration not stated) was what?
inactive

In this assay, the call recorded for COc1cc(C2CC(c3cc(C)ccc3C)=NN2c2ccc(S(=O)(=O)NC(=O)NCc3ccccc3)cc2)cc(OC)c1OC (configuration not stated) was what?
inactive

====

In this section, each of the compounds is paired with its reported TGI.
- Tested on: HCT-116 colon
- EXPERIMENT: NCI tumour cell line growth inhibition, 48 h

The cases that follow already have their TGI on record.
COMPOUND: CC(=O)OC[C@]12CC[C@@H]([C@@H](C)C(N)=O)[C@@H]1[C@H]1CC[C@@H]3[C@@]4(C)CC[C@H](OC(C)=O)C(C)(C)[C@@H]4CC[C@@]3(C)[C@]1(C)CC2
TGI: 14.7 µM
//
COMPOUND: CCOc1ccc2c(ccc(/C=C\c3cc(C)c4cccnc4c3O)[n+]2C)c1
TGI: 25 µM

Which TGI reading was recorded for the compound `C/C(=C\CCc1ccoc1)CC/C=C(\C)CCCN1CCC(CO)CC1` ?
10.4 µM

Which TGI reading was recorded for the compound `COc1cc(C(N)=O)cc(NC(=O)/C=C/c2ccccc2)c1OC` ?
> 100 µM

Which TGI reading was recorded for the compound `N#CC(C#N)=C(N)/C(C#N)=C/c1cc(O)c(O)c(Br)c1` ?
> 100 µM

Which TGI reading was recorded for the compound `COC(=O)NN=C(c1ccc(Cl)cc1)c1ccc(Cl)cc1` ?
> 100 µM
